Experimental system: pooled human IgG
Assay endpoint: Enzyme Activity Endpoint Assay (purified): Fc
Just the number plus its unit, please.

stdin: What value of Enzyme Activity Endpoint Assay (purified): Fc has been recorded for this entry: Ide85 (protein) MANQEIRYSEVTPYHVTSVWTKGVTPPAKFTQGEDVFHAPYVANQGWYDITKTFNGKDDLLCGAATAGNMLHWWFDQNKEKIEAYLKKHPDKQKIMFGDQELLDVRKVINTKGDQTNSELFNYFRDKAFPGLSARRIGVMPDLVLDMFINGYYLNVYKTQTTDVNRTYQEKDRRGGIFDAVFTRGDQSKLLTSRHDFKEKNLKEISDLIKKELTEGKALGLSHTYANVRINHVINLWGADFDSNGNLKAIYVTDSDSNASIGMKKYFVGVNSAGKVAISAKEIKEDNIGAQVLGLFTLSTGQDSWNQTN
stdout: 615 ng/µL
